assay: Fluorescence quantum yield against Rhodamine 6G; format: physicochemical; details: in ethanol, Rhodamine 6G as reference
readout.name: quantum yield

Worked examples follow.
[[record]]
molecule_smiles = "C[n+]1ccc(/C=C/c2c[nH]c3ccc(F)cc23)cc1"
readout_name = "quantum yield"
reported_value = "around 20%"

[[record]]
molecule_smiles = "Cc1cc(Br)cc2c(/C=C/c3cc[n+](C)cc3)c[nH]c12"
readout_name = "quantum yield"
reported_value = "around 20%"

[[record]]
molecule_smiles = "C[n+]1ccc(/C=C/c2c[nH]c3ccc(C#N)cc23)cc1"
readout_name = "quantum yield"
reported_value = "49.1%"

[[record]]
molecule_smiles = "C[n+]1ccc(/C=C/c2c[nH]c3c2ccc2ccccc23)cc1"
readout_name = "quantum yield"
reported_value = "around 12%"

[[record]]
molecule_smiles = "Cc1ccc2[nH]c(C)c(/C=C/c3cc[n+](C)cc3)c2c1"
readout_name = "quantum yield"
reported_value = "around 20%"


Now take the following compound into account.
For Cn1cc(/C=C/c2cc[n+](C)cc2)c2cc(F)ccc21 , write its quantum yield. around 12%
